experiment: Pharmacokinetics assay in SD rats, intragastric administration, plasma by LC/MS/MS; type: in vivo, Sprague-Dawley (SD) rats; conditions: both sexes, Sprague-Dawley, rat, plasma, po, 3.0 mg/kg, read-out: Plasma Conc. Cmax
Readout Kind: Cmax (ng/mL)

>>> number("O=C(O)C1(Sc2ccnc3ccc(Br)cc23)CCC1")
3470
>>> number("O=C(O)C1(Sc2ccnc3ccccc23)CCC1")
8800
>>> number("O=C(O)C1(Sc2ccnc3ccc(C(F)(F)F)cc23)CCC1")
2710

###

assay: Pharmacokinetics assay in SD rats, intragastric administration, plasma by LC/MS/MS; type: in vivo, Sprague-Dawley (SD) rats; conditions: both sexes, Sprague-Dawley, rat, plasma, po, 3.0 mg/kg, read-out: Clearance CL/F
Recorded CL/F values for a group of compounds are listed next.
Readout Kind: CL/F (mL/min/kg)

>>> number("O=C(O)C1(Sc2ccnc3ccccc23)CCC1")
2.54
>>> number("O=C(O)C1(Sc2ccnc3ccc(C(F)(F)F)cc23)CCC1")
1.95
>>> number("O=C(O)C1(Sc2ccnc3ccc(Br)cc23)CCC1")
1.89
